Molecular target: Gcr1 (UniProt P07261)
Sequence: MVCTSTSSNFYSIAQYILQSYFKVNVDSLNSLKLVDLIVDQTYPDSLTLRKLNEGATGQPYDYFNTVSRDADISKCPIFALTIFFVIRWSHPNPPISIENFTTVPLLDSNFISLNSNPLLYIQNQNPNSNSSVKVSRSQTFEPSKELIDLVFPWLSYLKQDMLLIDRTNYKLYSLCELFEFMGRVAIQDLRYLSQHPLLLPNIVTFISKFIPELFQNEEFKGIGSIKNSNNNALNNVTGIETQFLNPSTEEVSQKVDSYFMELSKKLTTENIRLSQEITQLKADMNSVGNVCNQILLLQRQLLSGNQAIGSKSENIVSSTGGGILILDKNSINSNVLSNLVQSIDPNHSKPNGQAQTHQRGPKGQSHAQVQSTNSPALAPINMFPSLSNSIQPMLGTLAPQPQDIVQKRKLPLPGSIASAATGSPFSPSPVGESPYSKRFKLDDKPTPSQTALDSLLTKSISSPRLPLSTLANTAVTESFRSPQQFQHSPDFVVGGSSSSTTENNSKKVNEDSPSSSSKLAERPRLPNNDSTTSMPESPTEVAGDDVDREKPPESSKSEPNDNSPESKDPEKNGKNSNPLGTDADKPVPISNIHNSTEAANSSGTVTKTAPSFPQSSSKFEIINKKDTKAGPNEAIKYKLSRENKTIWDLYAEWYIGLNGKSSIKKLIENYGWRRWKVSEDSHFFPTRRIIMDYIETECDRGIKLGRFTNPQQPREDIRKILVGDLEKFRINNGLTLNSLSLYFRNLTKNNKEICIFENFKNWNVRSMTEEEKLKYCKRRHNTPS
Test: PBM E-score (8-mer binding enrichment) (E-score (-0.5 to 0.5)); higher = stronger / more preferred TF binding
Conditions: protein concentration: 100 nM; construct: GST-full length
Whole data set: some 33,000 sequences, median “E-score (-0.5 to 0.5)” near -0.011, cut for the highest 2% near 0.28. The sample as a whole holds a higher share of the highest values than the screen did.
For each of the sequences below, state its PBM E-score.
The answer should be a number; do not append a unit.

For reference, reported PBM E-score for AATTTTTG stands at 0.1

Field PBM E-score (entry AATCTTGA ) reads 0.1

Record CAAATTGG , field PBM E-score: 0.213

# PBM E-score of AAATTTGG = 0.301

Briefly, PBM E-score measured for AAATTTTG : 0.088

Lab note: ACGCTAGA gave PBM E-score of -0.0413

Please fill in: PBM E-score reported for AAATTGGG = 0.295

Briefly, PBM E-score measured for AAAATTGG : 0.316

The reported value for CAATTTGG in terms of PBM E-score is 0.222

For AATTTTGG the sequence record lists PBM E-score as 0.287

The sequence listed as ATCCTACG shows PBM E-score equal to -0.00941

----------
Kindly state PBM E-score for each of the entries shown.
Molecular target: Gcr1 (UniProt P07261)
Sequence: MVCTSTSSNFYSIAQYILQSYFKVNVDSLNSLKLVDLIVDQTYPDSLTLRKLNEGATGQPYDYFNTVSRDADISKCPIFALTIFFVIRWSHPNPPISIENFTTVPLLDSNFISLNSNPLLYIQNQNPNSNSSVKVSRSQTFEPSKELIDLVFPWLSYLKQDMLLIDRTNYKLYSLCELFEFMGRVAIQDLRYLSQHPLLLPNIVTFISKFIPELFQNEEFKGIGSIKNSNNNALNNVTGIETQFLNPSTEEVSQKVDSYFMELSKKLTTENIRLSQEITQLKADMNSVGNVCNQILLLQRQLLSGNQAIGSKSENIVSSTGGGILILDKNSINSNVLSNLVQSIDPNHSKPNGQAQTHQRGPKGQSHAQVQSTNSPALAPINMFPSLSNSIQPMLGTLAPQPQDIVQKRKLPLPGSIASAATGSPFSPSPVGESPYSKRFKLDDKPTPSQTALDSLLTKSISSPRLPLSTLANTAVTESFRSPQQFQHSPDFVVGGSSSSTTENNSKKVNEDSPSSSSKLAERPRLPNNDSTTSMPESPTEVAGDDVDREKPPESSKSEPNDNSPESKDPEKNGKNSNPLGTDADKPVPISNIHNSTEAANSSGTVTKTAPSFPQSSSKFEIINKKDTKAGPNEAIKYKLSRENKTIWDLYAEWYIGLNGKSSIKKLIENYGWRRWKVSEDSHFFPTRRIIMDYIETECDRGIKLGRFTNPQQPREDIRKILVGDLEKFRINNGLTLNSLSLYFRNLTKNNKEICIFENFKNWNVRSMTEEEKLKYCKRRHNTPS
Assay: PBM E-score (8-mer binding enrichment) (E-score (-0.5 to 0.5)); higher = stronger / more preferred TF binding
Conditions: protein concentration: 100 nM; construct: GST-full length
In all, about 33,000 sequences were measured (“E-score (-0.5 to 0.5)”: median about -0.011, highest 2% from about 0.28 on). The full list was thinned out, with the highest values kept by preference.
# respond with the number and nothing more

For reference, reported PBM E-score for ACGCCTCA stands at -0.137

The sequence identified as GAGCCGTA registered its PBM E-score at 0.0183

// recorded PBM E-score for AGTTCCTG : 0.0262

Entry CGACGCCC — recorded PBM E-score = 0.287

For reference, reported PBM E-score for CGGGTGTC stands at -0.116

Summary for this sequence, CTGGTGCC : PBM E-score is 0.352

Measured PBM E-score of GAGGTGCA : -0.125

So, TGACGCCA ? Its PBM E-score was -0.0776

For this sequence ( GATAACCC ), measured PBM E-score is -0.017

Per the record, AGGGTGCG has PBM E-score of 0.0402

Entry GACTTTCA ; PBM E-score = 0.0748

These entries and their values trace back to the supplement of paper PMC3334620.
